Reference source for all entries: ChEMBL document CHEMBL1124157

Reported Ki is given for each of the following compounds.
species: Mus musculus; assay: Inhibition of serotonin uptake carrier in mice
Just the number in nM, nothing appended.

1. CNCC[C@H](Oc1ccc(C(F)(F)F)cc1)c1ccccc1	33

Next item in the queue.
Ask: Value lookup for Ki; key = CNCC[C@@H](Oc1ccc(C(F)(F)F)cc1)c1ccccc1 [R-FLUOXETINE]
Reply: 21
